subject.of.test: c-kit kinase (Homo sapiens, UniProt P10721)
Construct: The c-kit (or kinase domain thereof) is an active kinase in AlphaScreen; poly-Histidine tag (in-house protein only) (cleaved yes); host or cells: E. coli BL21(DE3)RIL, co-expressed with PTP1B
Sequence (P10721 26-976): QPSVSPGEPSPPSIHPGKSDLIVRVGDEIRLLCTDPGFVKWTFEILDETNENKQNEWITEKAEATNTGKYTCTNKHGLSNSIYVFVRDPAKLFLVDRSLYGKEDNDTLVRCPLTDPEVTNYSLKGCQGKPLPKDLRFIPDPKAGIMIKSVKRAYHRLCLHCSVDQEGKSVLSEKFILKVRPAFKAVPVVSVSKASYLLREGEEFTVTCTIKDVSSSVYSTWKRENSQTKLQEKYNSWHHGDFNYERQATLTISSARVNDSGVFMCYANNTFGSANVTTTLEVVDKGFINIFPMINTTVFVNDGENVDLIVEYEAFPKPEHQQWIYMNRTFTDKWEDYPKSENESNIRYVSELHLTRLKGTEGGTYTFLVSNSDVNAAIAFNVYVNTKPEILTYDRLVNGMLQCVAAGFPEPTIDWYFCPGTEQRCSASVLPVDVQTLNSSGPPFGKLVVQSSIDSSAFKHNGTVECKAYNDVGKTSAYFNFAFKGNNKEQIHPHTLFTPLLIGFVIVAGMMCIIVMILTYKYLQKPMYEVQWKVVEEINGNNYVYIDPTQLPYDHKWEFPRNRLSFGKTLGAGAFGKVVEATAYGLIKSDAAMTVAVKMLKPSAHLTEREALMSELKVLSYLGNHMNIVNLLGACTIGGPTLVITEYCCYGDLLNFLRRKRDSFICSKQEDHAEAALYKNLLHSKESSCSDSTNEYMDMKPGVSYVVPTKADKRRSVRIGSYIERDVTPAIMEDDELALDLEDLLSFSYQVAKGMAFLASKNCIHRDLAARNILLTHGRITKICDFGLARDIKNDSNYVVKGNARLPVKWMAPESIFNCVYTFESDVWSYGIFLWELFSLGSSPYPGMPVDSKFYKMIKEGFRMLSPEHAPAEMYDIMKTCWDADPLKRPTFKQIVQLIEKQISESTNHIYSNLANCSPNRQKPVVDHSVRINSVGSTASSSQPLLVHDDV
measurement.notes: c-Kit biochemical assay, AlphaScreen, 10 μM ATP
test.settings: c-kit biochemical inhibitory activity; read-out: Biochemical activity (IC50 μM) Kit
quantity.kind: IC50

Could you please provide reported IC50 for CCc1ccc(S(=O)(=O)NC2CCN(c3ncnc4[nH]c(C)cc34)CC2)cc1 ? Thanks! 10 to 200 µM

Identify measured IC50 corresponding to Cn1cc(-c2cc3c(N4CCC(NS(=O)(=O)c5ccc(Cl)cc5)CC4)ncnc3[nH]2)cn1 1 to 10 µM

Write down IC50 measured for item C[C@H](NC(=O)N1CCN(c2ncnc3cc(C4=CCN(C(=O)C5CC5)CC4)sc23)CC1(C)C)c1cccc(Cl)c1 0.0001 to 1 µM

Tell me measured IC50 for CCOc1ccc(NC(=O)N2CCN(c3ncnc4[nH]c(C)cc34)CC2)cc1 please. 10 to 200 µM

###

subject.of.test: c-kit mutant D816V (Homo sapiens, UniProt P10721, D816V/DEL694-753)
Construct: residues 551-934, kinase insertion domain residues 694-753 deleted; 6x-histidine (N); made in house; host or cells: E. coli Arctic Express (DE3) RIL (Stratagene)
Sequence (P10721 with tags, fused parts or gaps DEL694-753/D816V): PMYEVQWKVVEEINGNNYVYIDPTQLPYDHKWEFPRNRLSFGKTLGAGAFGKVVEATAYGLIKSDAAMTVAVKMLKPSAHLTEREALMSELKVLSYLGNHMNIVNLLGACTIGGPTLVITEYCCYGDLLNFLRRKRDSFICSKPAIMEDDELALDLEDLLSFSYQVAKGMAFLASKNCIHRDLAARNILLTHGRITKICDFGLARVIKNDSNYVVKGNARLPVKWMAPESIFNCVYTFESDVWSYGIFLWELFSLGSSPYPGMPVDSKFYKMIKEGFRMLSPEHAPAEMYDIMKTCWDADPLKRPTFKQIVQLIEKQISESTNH
measurement.notes: c-Kit mutant D816V biochemical assay, AlphaScreen
test.settings: c-kit D816V biochemical inhibitory activity; read-out: Biochemical activity (IC50 μM) Kit D816V
Method: Compounds to be tested were dissolved in DMSO to a concentration of 20 mM. These were diluted 30 μl into 120 μl of DMSO (4 mM) and 1 μl was added to an assay plate. These were then serially diluted 1:3 (50 μl to 100 μl DMSO) for a total of 8 points. […] The samples were incubated for 60 minutes at room temperature and the signal per well was read on EnVision reader. […]
quantity.kind: IC50

State its IC50 for this molecule: COc1ccc(S(=O)(=O)N2CCN(c3ncnc4[nH]ccc34)CC2)cc1 10 to 200 µM

Name the recorded IC50 of the molecule listed here: Cc1cc2c(-c3ccc(NS(=O)(=O)c4cccc(Cl)c4)cc3F)ncnc2[nH]1 1 to 10 µM

Fill in IC50 for record CCc1ccc(S(=O)(=O)Nc2ccc(-c3ncnc4[nH]nc(C)c34)cc2)cc1 0.0001 to 1 µM

For the molecule C[C@H](NC(=O)N1CCN(c2ncnc3cc(-c4ccc(F)cc4)sc23)C[C@H]1C)c1ccc(F)cc1 , give its reported IC50. 1 to 10 µM

Tell me its IC50 given CS(=O)(=O)Nc1ccc(-c2ncnc3[nH]c(-c4ccc(F)cc4)cc23)c(F)c1F as the entry. 0.0001 to 1 µM

Supply recorded IC50 for COCCOc1cc2ncnc(-c3ccc(NS(C)(=O)=O)cc3F)c2cc1OCCOC here. 0.0001 to 1 µM

State, in one line, measured IC50 of COc1ccc(C(=O)N2CCN(c3ncnc4[nH]ccc34)CC2)cc1 10 to 200 µM

Please report the measured IC50 for Cc1cccc(S(=O)(=O)Nc2ccc(-c3ncnc4[nH]c(C)cc34)cc2)c1 1 to 10 µM

Return IC50 (reported value) for this molecule: N#Cc1cc2c(N3CCN(C(=O)NCc4ccc(F)cc4)CC3)ncnc2[nH]1 10 to 200 µM

Give IC50 for COc1ncc(F)cc1CNC(=O)N1CCN(c2ncnc3[nH]c(-c4cccnc4)cc23)CC1 1 to 10 µM

Look up IC50 of CC(C)(NC(=O)N1CC=C(c2ncnc3cc(-c4ccc(F)cc4)sc23)CC1)c1ccccc1 and report it. 0.0001 to 1 µM

For the molecule O=S(=O)(NC1CCN(c2ncnc3[nH]c(-c4ccc(Cl)cc4)cc23)CC1)c1cccc(Cl)c1 , give its measured IC50 value. 1 to 10 µM

Query IC50 for O=S(=O)(Nc1ccc(-c2ncnc3[nH]c(-c4cc(F)ccc4F)cc23)c(F)c1)C1CC1 1 to 10 µM

Let me know recorded IC50 for COc1cccc([C@H](C)NC(=O)N2CCN(c3ncnc4[nH]c(C)cc34)C[C@H]2C)c1 , thanks. 10 to 200 µM

###

subject.of.test: c-kit mutant D816V (Homo sapiens, UniProt P10721, D816V/DEL694-753)
Construct: residues 551-934, kinase insertion domain residues 694-753 deleted; 6x-histidine (N); made in house; host or cells: E. coli Arctic Express (DE3) RIL (Stratagene)
measurement.notes: c-Kit mutant D816V biochemical assay, AlphaScreen
test.settings: c-kit D816V biochemical inhibitory activity; read-out: Biochemical activity (IC50 μM) Kit D816V
Procedure: Compounds to be tested were dissolved in DMSO to a concentration of 20 mM. These were diluted 30 μl into 120 μl of DMSO (4 mM) and 1 μl was added to an assay plate. These were then serially diluted 1:3 (50 μl to 100 μl DMSO) for a total of 8 points. […] The samples were incubated for 60 minutes at room temperature and the signal per well was read on EnVision reader. […]
quantity.kind: IC50

Please give the documented IC50 of O=C(NCc1ccc(F)cc1)N1CCN(c2ncnc3cc(C4=CCNCC4)sc23)CC1 0.0001 to 1 µM

Answer with the recorded IC50 for the molecule listed here: Cc1ccc([C@H](C)NC(=O)N2CCN(c3ncnc4[nH]c(-c5ccc(F)cc5)cc34)C[C@H]2C)cc1 0.0001 to 1 µM

Read off the recorded IC50 for C[C@@H]1CN(c2ncnc3cc(-c4ccc(F)cc4)sc23)CCN1C(=O)NCc1ccc(F)cc1 0.0001 to 1 µM

Return the recorded IC50 value; entry: COc1ccc(S(=O)(=O)Nc2ccc(-c3ncnc4cc(OC)c(OC)cc34)cc2F)cc1 0.0001 to 1 µM

Name the recorded IC50 of the molecule listed here: Cn1cc(-c2cc3c(N4CCC(NS(=O)(=O)c5cc6ccccc6s5)CC4)ncnc3[nH]2)cn1 0.0001 to 1 µM

Please give measured IC50 of the following entry: Cc1ccc(S(=O)(=O)Nc2ccc(-c3ncnc4[nH]c(C)nc34)cc2)cc1 1 to 10 µM

Quickly give me recorded IC50 for O=C(NCCc1ccc(F)cc1)N1CCN(c2ncnc3[nH]ccc23)CC1 10 to 200 µM

Quick one: give measured IC50 for O=C(NCc1cncc(F)c1)N1CCN(c2ncnc3[nH]c(-c4ccc(F)cc4)cc23)CC1 1 to 10 µM
